I'd be grateful if you could share measured CC50 at 72 h for these entries.
- test: Cell Titer-Glo Cell Viability Assay, genotype 1b cells
- Format: cell-based
- measurement.parameters: human, Huh-Luc-Neo (HCV genotype 1b replicon) cells, HCV genotype 1b assays, read-out: Cytotoxicity* (CC50)

Quick note, CC50 at 72 h for Cc1ccc(O)c(-c2nn(C)cc2C#Cc2ccc(NC(=O)[C@@H]3CCCCN3C(=O)[C@@H](Cc3ccccc3)NC(=O)OC(C)(C)C)cc2)c1 landed at > 100 µM

Note to self: CC50 at 72 h recorded for Cc1ccc(O)c(-c2nn(C)cc2C#Cc2ccc(NC(=O)[C@@H]3CNCCN3C(=O)[C@H](NC(=O)OC(C)(C)C)c3ccccc3)cc2)c1 [Compound 27A] was 10 to 100 µM

Documented CC50 at 72 h of Cc1ccc(O)c(-c2nn(C)cc2C#Cc2ccc(NC(=O)C3CCCCN3S(=O)(=O)c3cccs3)cc2)c1 (stereo not shown) : > 100 µM

Per the record, Cn1cc(C#Cc2ccc(NC(=O)[C@@H]3CCCCN3C(=O)[C@@H](NC(=O)OC(C)(C)C)c3ccsc3)cc2)c(-c2cc(Br)ccc2O)n1 has CC50 at 72 h of 10 to 100 µM

The compound Cc1ccc(O)c(-c2nn(C)cc2C#Cc2ccc(NC(=O)[C@@H]3CS(=O)(=O)CCN3C(=O)[C@H](NC(=O)OC(C)(C)C)c3ccccc3)cc2)c1 showed CC50 at 72 h equal to > 100 µM

The measured CC50 at 72 h associated with COc1ccccc1[C@@H](NC(=O)OC(C)(C)C)C(=O)N1CCOC[C@H]1C(=O)Nc1ccc(C#Cc2cn(C)nc2-c2cc(C#N)ccc2O)cc1 [Compound 22A] reads > 100 µM

// CC50 at 72 h lookup, compound = Cc1ccc(OCC(N)=O)c(-c2nn(C)cc2C#Cc2ccc(NC(=O)C3CCCCN3C(=O)[C@H](Cc3ccccc3)NC(=O)OC(C)(C)C)cc2)c1 (stereo partly shown) , result: 10 to 100 µM

Lab note: CCOC(=O)c1ccc(O)c(-c2nn(C)cc2C#Cc2ccc(NC(=O)[C@@H]3CCCCN3C(=O)[C@H](NC(=O)OC(C)(C)C)c3ccccc3OC)cc2)c1 gave CC50 at 72 h of > 100 µM

Looking up Cc1ccc(O)c(-c2nn(C)cc2C#Cc2ccc(NC(=O)C3CCCCN3C(=O)[C@H](Cc3cccc(F)c3)NC(=O)OC(C)(C)C)cc2)c1 (stereo partly shown) , I see its CC50 at 72 h listed as 10 to 100 µM

Please fill in: CC50 at 72 h reported for Cc1ccc(O)c(-c2nn(C)cc2C#Cc2ccc(NC(=O)C3CCCCN3C(=O)[C@H](Cc3ccco3)NC(=O)OC(C)(C)C)cc2)c1 (stereo partly shown) [Compound 12A] = 10 to 100 µM
